Each entry below carries its recorded Relative Binding (hCNTF = 1).
- assay-target: T1, CNTF receptor-α (CNTFRα) (UniProt P26992 23-342, limits assumed)
- T1 construct: also called CNTFRa; CNTF a-receptor
- T1 sequence (looked up): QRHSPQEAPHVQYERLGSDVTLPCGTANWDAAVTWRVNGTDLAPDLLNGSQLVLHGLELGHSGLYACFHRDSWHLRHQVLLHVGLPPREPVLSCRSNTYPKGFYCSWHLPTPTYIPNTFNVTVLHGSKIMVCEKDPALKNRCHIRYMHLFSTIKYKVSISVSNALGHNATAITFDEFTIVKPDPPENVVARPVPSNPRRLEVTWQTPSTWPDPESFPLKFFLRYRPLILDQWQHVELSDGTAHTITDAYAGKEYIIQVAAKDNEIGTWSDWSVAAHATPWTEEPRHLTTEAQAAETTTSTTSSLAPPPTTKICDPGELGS
- experiment: solid phase binding assay on CNTFRα

These recorded examples may help you get a feel for the data.
(Ser166Asp/Gln167Ala) hCNTF (ligand) MAFTEHSPLTPHRRDLCSRSIWLARKIRSDLTALTESYVKHQGLNKNINLDSADGMPVASTDQWSELTEAERLQENLQAYRTFHVLLARLLEDQQVHFTPTEGDFHQAIHTLLLQVAAFAYQIEELMILLEYKIPRNEADGMPINVGDGGLFEKKLWGLKVLQELDAWTVRSIHDLRFISSHQTGIPARGSHYIANNKKM | 13.5 relative (hCNTF = 1)
(Ser166Gly/Gln167Ala) hCNTF (ligand) MAFTEHSPLTPHRRDLCSRSIWLARKIRSDLTALTESYVKHQGLNKNINLDSADGMPVASTDQWSELTEAERLQENLQAYRTFHVLLARLLEDQQVHFTPTEGDFHQAIHTLLLQVAAFAYQIEELMILLEYKIPRNEADGMPINVGDGGLFEKKLWGLKVLQELGAWTVRSIHDLRFISSHQTGIPARGSHYIANNKKM | 7.5 relative (hCNTF = 1)

Turning to the following binder.
Q) // query Relative Binding (hCNTF = 1) value for entry (Gln167Ala/Thr169Leu/Phe178Ile) hCNTF (ligand) MAFTEHSPLTPHRRDLCSRSIWLARKIRSDLTALTESYVKHQGLNKNINLDSADGMPVASTDQWSELTEAERLQENLQAYRTFHVLLARLLEDQQVHFTPTEGDFHQAIHTLLLQVAAFAYQIEELMILLEYKIPRNEADGMPINVGDGGLFEKKLWGLKVLQELSAWLVRSIHDLRIISSHQTGIPARGSHYIANNKKM
A) 8.4 relative (hCNTF = 1)
